Values compiled from the array DNA melting data of Ke et al. (doi:10.1101/2024.01.08.574731).

Test: melting temperature; fluorescence melt of hairpins on a sequencing array, two-state fit, raised by 9.35 °C to match UV melts
Details: sodium 0.088 M
Binarize Tm at 50 °C; below is Fulfilled, at or above is Not fulfilled.

Examples from the recorded data:
Does the reported Tm of the following sequence sit strictly below 50 °C? GGGAAGAAATTCCC (((((....)))))
Fulfilled

Thanks! And GTATGCGGAAACGTATGC (.((.((....)).)).) ?
Fulfilled

Thanks! And GTTCCCGAAAGGGCAAAC ((((((....)))..))) ?
Fulfilled

Thanks! And GATCTTTGCAAGATC ((((((...)))))) ?
Fulfilled

New cases:
Does the reported Tm of the following sequence sit strictly below 50 °C? GATCACAGTGTGATC ((((((...))))))
Not fulfilled

Thanks! And GCGTATTCACGC ((((....)))) ?
Not fulfilled

Thanks! And GATCGCAGTTGCGATC ((((((....)))))) ?
Not fulfilled

Thanks! And GACGTACCGAAAGGTGTC (((..(((....)))))) ?
Fulfilled

====

sequences and their reported folding enthalpy
Assay: folding enthalpy; higher = less favourable; fluorescence melt of hairpins on a sequencing array, two-state fit
Settings: sodium 0.088 M
The figure you give is taken to be in kcal/mol; do not add the unit.

Find the recorded folding enthalpy belonging to GATCGTTCGACGATC ((((((...)))))) and report it.
-38.2

Thanks! And GCAAAGCGAAAGCTTAGC ((.((((....)))).)) ?
-19

Thanks! And CGTTTCCGGAAACGGACG (((..(((....)))))) ?
-17.1

Thanks! And GCCGCGCGAAAGCGTCGC ((..(((....)))..)) ?
-10.1

Thanks! And GTACTCGAAAGAGCTTAC ((((((....)))..))) ?
-11.4

New cases:
Find the recorded folding enthalpy belonging to GCGTTTCACGC ((((...)))) and report it.
-34.8

Thanks! And GGCCTTACGAAAGTAGCC (((..(((....)))))) ?
-22.1

Thanks! And GTCTCGCGAAAGCGTGAC (((.(((....))).))) ?
-28.6

Thanks! And GCGTAGACACGC ((((....)))) ?
-19.8

Thanks! And GGGGGACGAAAGTCTCCC (((.(((....))).))) ?
-34.4

Thanks! And GCATGATCGAAAGATTGC (((..(((....)))))) ?
-19.9

Thanks! And GGGGCTGGAAACGGCCCC (((((.(....).))))) ?
-40.7

====

Assay: folding enthalpy; higher = less favourable; fluorescence melt of hairpins on a sequencing array, two-state fit
Details: sodium 0.088 M
Mark class 1 for reported folding enthalpy of -20 kcal/mol or greater; mark class 0 for anything smaller.

Is it the case that GTTCTCGAAAGAGAAAAC ((((((....)))..))) has folding enthalpy reaching or exceeding -20 kcal/mol?
class 1

Thanks! And GATCCAAGCCTGGATC ((((((....)))))) ?
class 0

Thanks! And GCTGAGCGAAAGCTTAGC (((.(((....))).))) ?
class 0

Thanks! And GAAAGGGGAAACCCTCTC ((.((((....)))).)) ?
class 1

Thanks! And GTCCCTGAAAAGGGAC ((((((....)))))) ?
class 0
